Tested on: NCI-H522 lung
Experiment: NCI-60 one-dose screen, 48 h (100 = growth as untreated, 0 = no growth, -100 = all killed)
Details: 10 µM unless noted
This is part of a sample that, as a whole, favours compounds with a hit. Of some 83,000 tested, about 20% had one in any assay. The source made the active and inactive calls. How the source made its calls: active means growth percent below 10; inactive means the rest.
metric: growth

compound	growth
O=S(=O)(Nc1ccccc1)c1ccc(C2CC3(Cl)C(Cl)=C(Cl)C2(Cl)C3(Cl)Cl)cc1 (configuration not stated)	29.9% (inactive)

Briefly, growth measured for C[C@@H]1CCC[C@H]1CC(N)C(=O)O (some centres not stated) : 105% (inactive)

Input CCSc1nc(NC)c2cc(-c3ccc(C(F)(F)F)cc3)ccc2n1 . Output growth: 93.7% (inactive)

growth measured on COc1ccc(C(=O)Nc2cccc(C3CC(=O)c4c(cc(OC)c(OC)c4OC)O3)c2)cc1 (configuration not stated) = -37.1% (active)

Reported growth for O=C1c2c(c3c4ccccc4[nH]c3c3ccc4ccccc4c23)C(=O)N1CCN1CCCCC1 was 38% (inactive)

growth for C=C1C(=O)O[C@H]2[C@H]1CC/C(COC(=O)NCc1ccc(Cn3c(=O)sn(CCI)c3=O)cc1)=C\CC[C@@]1(C)O[C@@H]21 is -92.8% (active)

* * *

System: TK-10 renal
Test: NCI-60 one-dose screen, 48 h (100 = growth as untreated, 0 = no growth, -100 = all killed)
Details: 10 µM unless noted
About 83,000 compounds went through this panel and 20% of them were active in at least one assay; those are over-represented in the sample as a whole. The source made the active and inactive calls. How the source made its calls: active means growth percent below 10; inactive means the rest.
Let's look at some molecules and their measured growth.

                                   molecule        data_value
0  COc1ccc(-c2nc3c(c(-c4ccccc4)nn3-c3ccccc3)c(-c3ccc(N4CCOCC4)cc3)c2C#N)cc1   110% (inactive)
1  CCOC(=O)/C=C1\S/C(=N\Nc2cc(=O)[nH]c3ccc(Cl)cc23)N(c2ccccc2)C1=O   107% (inactive)
2  CC1=C(CCC(C)N(C)Cc2ccc(OCCCN3CCCC3)cc2)C(C)(C)CCC1 (stereo not drawn)  49.9% (inactive)

Input Cc1ccc(-c2nc(/C=C3/C(=O)Nc4ccccc43)c3ccccn23)cc1 . Output growth: 88.9% (inactive)

* * *

Test system: SR leukemia
Test: NCI-60 one-dose screen, 48 h
Details: 10 µM unless noted
Compounds without any hit were thinned out: in the full panel of roughly 83,000, 20% have a hit. The source made the active and inactive calls. The calls were made as follows: active = growth percent below 10; inactive = the rest.
Could you please pick one outcome from this set? true (active), false (inactive)

                                   molecule  assigned_category
0  O=C(COc1ccc(-c2nc3ccccc3[nH]2)cc1)N=Nc1c(O)[nH]c2ccc(Cl)cc12              false
1  CN(C)c1ccc(Nc2cc(-c3cccc(OC(F)(F)F)c3)nc3ccc(N4CCCC4)cc23)cc1               true
2  COc1ccc(OC)c(-c2c(C#N)c(-c3cccs3)nc3c2c(-c2ccccc2)nn3-c2ccccc2)c1              false
3         COc1ccc2nc3ccc(OC)cc3c(SCCCN)c2c1               true
4  Cc1ccc(CNc2ccc(Cl)cc2NCc2ccc(C)c(O)c2)cc1O               true
5  CC1(c2ccccc2O)NN=C(/N=C/c2cccc([N+](=O)[O-])c2)N1C(Cc1c[nH]c2ccccc12)C(=O)O (stereo unspecified)              false
6          c1ccc(CNc2c3ccccc3nc3ccccc23)cc1              false
7  Cc1ccc(-c2nc(/C=C3/C(=O)Nc4ccccc43)c3ccccn23)cc1              false
8  C=C(C)[C@@H]1CC[C@]2(C)[C@H](CC=C3[C@@H]4[C@H](C)[C@@H](C)CC[C@]4(CO)CC[C@]32C)[C@@]1(C)CCCN               true
9         C/C(Nc1ccc(Cl)c(Cl)c1)=C1\CCOC1=O              false

Let us examine a further case.
Problem: What did the test return for COc1ccc(/C=C2\COc3ccc(O)cc3C2=O)c(OC)c1OC ?
Result: false

* * *

Tested on: CAKI-1 renal
Experiment: NCI-60 one-dose screen, 48 h
Conditions: 10 µM unless noted
This is part of a sample that, as a whole, favours compounds with a hit. Of some 83,000 tested, about 20% had one in any assay. Activity calls are given as the source filed them. How the source made its calls: active means growth percent below 10; inactive means the rest.
Lab note: assign the record to one of active, inactive

In [3]: df
Out[3]:
                              smiles_record  assigned_category
0  CC1=Nc2cnc(Nc3ccc(OCCN4CCCC4)cc3)nc2Nc2ccccc21           inactive

Problem: For Brc1ccc(-n2cc(-c3nn[nH]n3)c(-c3cccs3)n2)cc1 , what call appears in the results of this test?
Result: inactive

Problem: Tell me the recorded outcome of this test for N#Cc1nn(-c2cc(=O)[nH]c3ccc(Cl)cc23)c(N)c1C#N .
Result: inactive

Problem: Outcome logged for O=C1c2cc(Cl)ccc2S(=O)(=O)c2c(NCCCNCCO)nc3ccccc3c21 in this assay:
Result: active

* * *

Test system: SW-620 colon
Experiment: NCI-60 one-dose screen, 48 h
Conditions: 10 µM unless noted
Compounds without any hit were thinned out: in the full panel of roughly 83,000, 20% have a hit. Activity calls are given as the source filed them. The calls were made as follows: active = growth percent below 10; inactive = the rest.
Respond with a class label; see true (1) (active), false (0) (inactive)

Would you please look over these solved cases?
>>> print(df.to_string())
                              smiles_record  assigned_category
0  CN1CCN(Cc2ccc3c(NNC(=O)c4ccccc4)nc4cc(F)ccc4n23)CC1          false (0)
1  CCOC(=O)c1cn2ncnc(Oc3ccc(NC(=O)NC4CCCCC4)c(Cl)c3)c2c1C          false (0)
2  CC(=O)[C@@H]1CCC=C2CC[C@]3(C)[C@@H](CC[C@@H]4[C@@]5(C)CCCNC(C)(C)[C@@H]5CC[C@]43C)[C@H]21           true (1)

Attention now shifts to the item below.
Problem: Please state the recorded outcome for this molecule: O=C(Nc1cccc([N+](=O)[O-])c1)c1cc2ccccc2cc1O
Result: true (1)

* * *

System: A498 renal
Experiment: NCI-60 one-dose screen, 48 h (100 = growth as untreated, 0 = no growth, -100 = all killed)
Settings: 10 µM unless noted
Compounds without any hit were thinned out: in the full panel of roughly 83,000, 20% have a hit.
Measured growth by item
Kindly provide the numeric value in % only, without the unit symbol.

In [3]: df
Out[3]:
                              smiles_record      target  unit_tag  data_value
0         O=C(O)CNC1=C(Cl)C(=O)c2ccccc2C1=O  A498 renal         %         102
1  CCc1ccc(Oc2cn[nH]c2-c2ccc(OCCc3ccc(F)cc3)cc2O)cc1  A498 renal         %         105
2       Cc1ccc(NC(=S)NNC(=S)NNc2ccccc2)cc1C  A498 renal         %        93.7
3  C#Cc1cccc(Nc2ncnc3ccc(-c4cnc(N)nc4)cc23)c1  A498 renal         %       -44.6
4  O=[N+]([O-])c1ccc(S(=O)(=O)N2CCN(C3=NS(=O)(=O)c4ccccc4N3c3ccccc3)CC2)cc1  A498 renal         %         105

# evaluate next
Per the records, this compound ( COc1cccc(NC(=O)Cn2cc(CN3CCN(c4ccnc5cc(Cl)ccc45)CC3)nn2)c1 ) has growth equal to 104

* * *

Test system: CAKI-1 renal
Assay: NCI-60 one-dose screen, 48 h (100 = growth as untreated, 0 = no growth, -100 = all killed)
Conditions: 10 µM unless noted
About 83,000 compounds went through this panel and 20% of them were active in at least one assay; those are over-represented in the sample as a whole.
Assign labels as follows, please: class 1 for growth below 50%; class 0 for growth equal to or exceeding 50%.

Example entries begin here.
>>> print(df.to_string())
                                   compound  assigned_category
0                 CC(C)n1cnc2c(=S)nc[nH]c21            class 0
1  COc1ccc2[nH]cc(-c3nc(-c4c[nH]c5ccncc45)cs3)c2c1            class 1
2  Cc1ccc(-c2csc(NC(=O)CN3CCN(c4cc5c(cc4F)c(=O)c(C(=O)O)cn5C4CC4)CC3)n2)cc1            class 1
3  CCOC(=O)CNP(=O)(OC[C@@H](Cc1ccccc1)NC(=O)c1cc2ccccc2s1)Oc1ccccc1 (stereo not given in full)            class 0
4  O=S(=O)(NCCNc1nccc(-c2c(-c3cccc(F)c3)nc3occn23)n1)c1ccc(Br)cc1            class 0

Problem: In the record for Cc1ccc(Sc2nnc(/N=C3\C(=O)Nc4ccccc43)s2)cc1 , is growth less than 50%?
Result: class 0

Problem: Decide: growth of O=C1/C(=C/c2ccc(F)cc2)COc2ccc(O)c(O)c21 strictly below 50%?
Result: class 1

Problem: Determine whether this compound shows growth lower than 50% (ties excluded): Cc1ccccc1/C=C1\CN(C(=O)OC(C)(C)C)C/C(=C\c2ccccc2C)C1=O
Result: class 1

Problem: Strictly below 50% in growth? O=C1Nc2ccccc2[C@]12CC(c1ccccc1)=NN2
Result: class 1
